# measured-target: T1, SARS-CoV-2 spike protein on authentic virus, strain SARS-CoV-2/human/AUS/VIC01/2020 (Victoria) (SARS-CoV-2, UniProt P0DTC2 14-1273)
# T1 construct: whole, on cells
# method-notes: calculated from whole-virus ELISA binding and FRNT50
experimental-endpoint: % Occupancy (%)

{"binder": "antibody 88, full-length IgG (antibody, V domains shown, also called mAb 88; 88 IgG) VH: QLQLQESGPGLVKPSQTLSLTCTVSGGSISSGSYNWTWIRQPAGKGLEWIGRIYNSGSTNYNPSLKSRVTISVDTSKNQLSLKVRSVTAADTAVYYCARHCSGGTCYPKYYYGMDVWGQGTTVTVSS VL: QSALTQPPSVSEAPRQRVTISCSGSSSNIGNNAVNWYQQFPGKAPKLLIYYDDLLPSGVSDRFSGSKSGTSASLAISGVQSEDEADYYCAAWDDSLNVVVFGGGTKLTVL", "unit-name": "%", "quantitative-result": 21.9}
